Target: T1, IL-18 receptor (IL-18Rα/IL-18Rβ) overexpressed on HEK-Blue IL-18 cells (Homo sapiens (Human), UniProt Q13478 19-541; O95256 20-599)
T1 sequence 1: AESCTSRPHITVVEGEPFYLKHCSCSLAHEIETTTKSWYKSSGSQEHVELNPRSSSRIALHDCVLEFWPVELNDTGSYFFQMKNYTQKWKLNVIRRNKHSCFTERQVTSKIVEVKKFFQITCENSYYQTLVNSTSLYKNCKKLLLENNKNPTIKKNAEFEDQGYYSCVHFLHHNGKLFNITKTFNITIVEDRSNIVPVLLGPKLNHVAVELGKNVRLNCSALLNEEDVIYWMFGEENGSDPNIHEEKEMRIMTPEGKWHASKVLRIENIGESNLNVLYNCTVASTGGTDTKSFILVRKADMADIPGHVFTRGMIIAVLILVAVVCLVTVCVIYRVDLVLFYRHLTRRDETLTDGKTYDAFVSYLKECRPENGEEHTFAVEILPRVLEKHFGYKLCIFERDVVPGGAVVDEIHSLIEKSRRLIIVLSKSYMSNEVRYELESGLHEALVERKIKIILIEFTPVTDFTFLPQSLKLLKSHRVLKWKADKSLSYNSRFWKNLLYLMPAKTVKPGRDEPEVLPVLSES
T1 sequence 2: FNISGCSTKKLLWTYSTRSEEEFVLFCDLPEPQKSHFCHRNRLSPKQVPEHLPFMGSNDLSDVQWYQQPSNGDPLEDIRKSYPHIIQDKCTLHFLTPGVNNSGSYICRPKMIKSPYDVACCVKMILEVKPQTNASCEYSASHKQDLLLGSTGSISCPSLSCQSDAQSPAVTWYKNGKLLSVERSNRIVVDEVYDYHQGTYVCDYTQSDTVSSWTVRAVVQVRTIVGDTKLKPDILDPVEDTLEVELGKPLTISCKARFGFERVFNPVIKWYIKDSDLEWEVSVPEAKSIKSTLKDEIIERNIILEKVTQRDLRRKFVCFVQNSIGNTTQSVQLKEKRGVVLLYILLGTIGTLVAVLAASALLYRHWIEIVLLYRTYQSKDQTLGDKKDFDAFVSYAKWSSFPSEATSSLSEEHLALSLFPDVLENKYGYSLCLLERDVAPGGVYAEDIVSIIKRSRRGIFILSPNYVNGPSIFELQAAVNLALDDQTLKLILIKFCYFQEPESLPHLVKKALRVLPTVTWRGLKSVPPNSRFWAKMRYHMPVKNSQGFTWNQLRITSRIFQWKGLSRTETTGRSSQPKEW
Assay: cell-based or functional assay
experimental.endpoint: HEK-Blue IL-18: Fold over Background (fold)
Write down the numeric answer in fold and omit the unit.

binder	quantitative.result
DGL247 (bispecific antibody, V domains shown) V domain 1: QVQLVESGGGSVQAGDSLRLSCAGSGRTFSSYVLGWFRQAPGKEREFVASISWSGDGTYYADSVKGRFTISRDNAENMVYLQMNSLKPEDTAVYYCAADGTTALAMSRLDASTYDFDYWGQGTQVTVSS V domain 2: QLQLVESGGGLVQAGGSLRLSCAASRSITFSHNVMGWYRQAPGKQRELVASIGSGGSTNYVDSVKGRATISRDNAKKTVYLQMNSLKPEDTAVYYCGVVVGVYRGSLGQGTQVTVSS	2.2

Prompt: Give the measured HEK-Blue IL-18: Fold over Background of DGL248 (bispecific antibody, V domains shown) V domain 1: QLQLVESGGGLVQPGGSLRLSCAASGFTLDYYAISWFRQVPGKEREGVSCISSNGGSTAYADSVKGRFTISRDNTKNTAYLQMNSLKPEDTAIYYCAASARTIQAMCQRSNFPTRYDYWGQGTQVTVSS V domain 2: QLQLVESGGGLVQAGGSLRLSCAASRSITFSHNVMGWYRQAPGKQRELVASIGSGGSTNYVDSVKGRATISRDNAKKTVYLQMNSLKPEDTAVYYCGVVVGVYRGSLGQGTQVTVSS .
Completion: 1.8

Prompt: Give the measured HEK-Blue IL-18: Fold over Background of DGL254 (bispecific antibody, V domains shown) V domain 1: QVQLVESGGGLVQAGGSLRLSCAASGRTFSKHAMGWFRQAPGKEREFVAAIDWSGGSTYYADSVKGRFTISRDNAKNTVYLQMDSLKPEDTAVYYCAADSYTDYAQLWLPELESEYDYWGQGTQVTVSS V domain 2: QVQLVESGGGLVQAGGSLRLSCAASESIFSFVAMGWYRQAPGKQRELVVKISSGGSTNYADSVKGRFTISRDNAKNTVYLEMNSLKFEDTGVYYCNAVRPNGMDYWGKGTLVTVSS .
Completion: 1.2
